Target: Neuronal acetylcholine receptor subunit alpha-7 (Rattus norvegicus, UniProt Q05941)
Sequence (Q05941 whole entry): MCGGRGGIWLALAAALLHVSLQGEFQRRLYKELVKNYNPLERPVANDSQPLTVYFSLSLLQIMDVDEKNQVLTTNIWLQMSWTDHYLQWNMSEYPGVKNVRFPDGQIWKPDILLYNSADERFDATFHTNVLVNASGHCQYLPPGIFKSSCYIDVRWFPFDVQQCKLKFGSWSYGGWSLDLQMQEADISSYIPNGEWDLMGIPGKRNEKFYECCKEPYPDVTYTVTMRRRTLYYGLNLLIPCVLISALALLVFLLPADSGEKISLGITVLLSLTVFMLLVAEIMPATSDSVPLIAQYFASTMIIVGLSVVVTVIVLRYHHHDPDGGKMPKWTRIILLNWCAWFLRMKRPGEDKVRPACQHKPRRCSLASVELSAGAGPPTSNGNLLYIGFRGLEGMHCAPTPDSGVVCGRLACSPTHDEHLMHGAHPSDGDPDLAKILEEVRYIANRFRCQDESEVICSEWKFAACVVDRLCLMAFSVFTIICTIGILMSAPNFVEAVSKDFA
Test: Inhibition of [125I]-iodo-MLA binding to Nicotinic acetylcholine receptor alpha-7 of rat cerebral cortex
pKi: −log10 of the molar value.
measurementKind: pKi

// solved cases for pKi follow
compound	pKi
Fc1ncc(C2CC3CCC2N3)cc1-c1ccccc1 (single isomer, unassigned; (+))	< 5.70
Fc1ncc(C2CC3CCC2N3)cc1-c1ccccc1 (racemic)	< 5.70

Field: next compound
Form field pKi, entry Fc1ncc(C2CC3CCC2N3)cc1-c1ccccc1 (stereo in doubt; (-)-5a) : < 5.70

----------
System: Mus musculus
Experiment: Percent effect on the body temperature was measured at a dose of 1 mg/kg
Assay type: functional
measurementKind: Body temperature

Example results:
compound	measurementKind	recordedValue
O=[N+]([O-])c1ccc(-c2cc(C3CC4CCC3N4)cnc2F)cc1 (centres undefined)	Body temperature	0%
Fc1cccc(-c2cc(C3CC4CCC3N4)cnc2F)c1 (centres undefined)	Body temperature	0%

// COc1ccc(-c2cc(C3CC4CCC3N4)cnc2F)cc1 (centres undefined) : Body temperature value = 10%
